biological target: T1, human CD3e/g antigen (ACRO, catalog number CDG-H52W5) (human, UniProt P07766 23-126; P09693 23-116); test: SPR (Biacore 8K), antibody captured via anti-human Fc
T1 construct: Bought reagent used as the Biacore analyte; also called hCD3e/g
Recorded measurements of kon, one per entry
Note: unit M⁻¹ s⁻¹ is implicit; provide only the numeric part.

Binder | Result Unit | kon
hAb001-24 (antibody, V domains shown, Humanized; constant regions not specified) VH: QVQLVQSGAEVKKPGASVKVSCKASGYSFTNYYMHWVRQAPGQRLEWIGWTYPGNNNIKYNEKFKGRVTITADTSASTAYMELSSLRSEDTAVYYCARDGYGYYFFDYWGQGTLVTVSS VL: DIVMTQSPDSLAVSLGERATMSCKSSQSLLNNRTRKNYLAWYQQKPGQPPKLLIYWASTRESGVPDRFTGSGSGTDFTLTISSLQAEDVAVYYCKQSYTLRTFGGGTKLEIK | M⁻¹ s⁻¹ | 394000

Here is the next item to consider.
I am curious: what kon value has been reported for hAb007-29 (antibody, V domains shown, Humanized; constant regions not specified) VH: QVQLVQSGAEVKKPGASVKVSCKASGSTFTDNYIHWVKQAPGQRLEWIGWIYPGSVNIKYNEKFKDRATITADTSATTAYMELSSLRSEDTAVYYCARDISRYYFDYWGQGTTVTVSS VL: DIVMTQSPDSLAVSLGERATINCKSSQSLLNSRTRKNYLAWYQQKPGQPPKLLIYWASTRESGVPDRFSGSGSGTDFTLTISSLQAEDVAVYYCKQSFILRTFGGGTKLEIK ?
421000
